Would you kindly list kinase still bound, per cent of control for each of these compounds?
TARGET_ENTITY: DMPK (human) (UniProt Q09013)
Sequence (Q09013 whole entry, looked up): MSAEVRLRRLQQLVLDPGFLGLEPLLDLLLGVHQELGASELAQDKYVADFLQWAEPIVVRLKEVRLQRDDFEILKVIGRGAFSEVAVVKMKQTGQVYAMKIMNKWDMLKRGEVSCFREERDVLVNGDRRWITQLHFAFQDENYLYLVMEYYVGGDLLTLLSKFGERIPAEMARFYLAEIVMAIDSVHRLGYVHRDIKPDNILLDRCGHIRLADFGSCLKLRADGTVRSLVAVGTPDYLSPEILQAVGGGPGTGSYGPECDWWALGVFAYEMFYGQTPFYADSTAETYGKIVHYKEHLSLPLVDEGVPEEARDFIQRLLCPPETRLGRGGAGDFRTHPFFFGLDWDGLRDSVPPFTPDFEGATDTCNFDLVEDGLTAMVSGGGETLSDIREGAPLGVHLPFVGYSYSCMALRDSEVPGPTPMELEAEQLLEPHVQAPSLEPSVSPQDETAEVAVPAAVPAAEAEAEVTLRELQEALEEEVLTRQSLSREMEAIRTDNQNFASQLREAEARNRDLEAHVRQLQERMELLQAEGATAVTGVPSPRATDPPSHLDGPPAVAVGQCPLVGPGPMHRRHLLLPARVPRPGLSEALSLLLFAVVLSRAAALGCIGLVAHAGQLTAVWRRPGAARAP
ASSAY_METHOD_TEXT: KINOMEscan competition binding
CONDITION_INFO: compound 10.0 µM
# output: bare number, implied unit %

*Q* API: value(readout= kinase still bound, per cent of control, system= DMPK (human) (UniProt Q09013), query= N#Cc1c(NC(=O)c2cccc3ccccc23)sc2c1CCCC2 )
*A* 83

*Q* What do you have for OCCCNc1cc(-c2ccnc(Nc3cccc(Cl)c3)n2)ccn1 ?
*A* 100

*Q* What do you have for O=C(NC1CC1)c1cccc(-c2ccc3c(NC(=O)C4CC4)n[nH]c3c2)c1 ?
*A* 100

*Q* What do you have for O=C(NOC[C@H](O)CO)c1ccc(F)c(F)c1Nc1ccc(I)cc1F ?
*A* 90

*Q* What do you have for CCCS(=O)(=O)Nc1ccc(F)c(C(=O)c2c[nH]c3ncc(-c4ccc(Cl)cc4)cc23)c1F ?
*A* 67

*Q* What do you have for COc1cc(C(=O)NC2CCN(C)CC2)ccc1Nc1ncc2c(n1)N(C1CCCC1)CCC(=O)N2C(C)C ?
*A* 100

*Q* What do you have for C[C@@H](Oc1cc(-n2cnc3ccc(CN4CCN(C)CC4)cc32)sc1C(N)=O)c1ccccc1C(F)(F)F ?
*A* 63

*Q* What do you have for C=CC(=O)Nc1cccc(Nc2nc(N[C@H]3CC[C@H](N(C)C)CC3)nc3c2ncn3C(C)C)c1 ?
*A* 8.8

*Q* What do you have for CC[C@@H]1C(=O)N(C)c2cnc(Nc3ccc(C(=O)NC4CCN(C)CC4)cc3OC)nc2N1C1CCCC1 ?
*A* 100

----------
Would you kindly list kinase still bound, per cent of control for each of these compounds?
TARGET_ENTITY: ADCK3 (human) (UniProt Q8NI60)
Sequence (Q8NI60 whole entry, looked up): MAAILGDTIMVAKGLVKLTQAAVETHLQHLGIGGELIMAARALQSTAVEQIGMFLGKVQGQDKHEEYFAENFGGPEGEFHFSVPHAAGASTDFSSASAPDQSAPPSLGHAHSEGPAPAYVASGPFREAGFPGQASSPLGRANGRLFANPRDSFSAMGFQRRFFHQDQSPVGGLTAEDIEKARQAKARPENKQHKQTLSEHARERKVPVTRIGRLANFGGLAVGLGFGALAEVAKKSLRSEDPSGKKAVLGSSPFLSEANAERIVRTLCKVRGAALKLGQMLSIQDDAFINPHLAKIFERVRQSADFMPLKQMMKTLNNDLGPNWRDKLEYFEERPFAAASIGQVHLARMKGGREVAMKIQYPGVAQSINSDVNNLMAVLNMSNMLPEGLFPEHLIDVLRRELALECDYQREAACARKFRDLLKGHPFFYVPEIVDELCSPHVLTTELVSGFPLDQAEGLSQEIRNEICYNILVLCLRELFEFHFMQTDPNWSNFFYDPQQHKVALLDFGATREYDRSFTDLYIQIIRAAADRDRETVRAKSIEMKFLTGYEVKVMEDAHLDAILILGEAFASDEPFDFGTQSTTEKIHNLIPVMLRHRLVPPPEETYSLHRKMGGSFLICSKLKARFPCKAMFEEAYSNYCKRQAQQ
ASSAY_METHOD_TEXT: KINOMEscan competition binding
CONDITION_INFO: compound 10.0 µM
# output: bare number, implied unit %

*Q* What value of measured kinase still bound, per cent of control is listed for C=CC(=O)Nc1cccc(Nc2nc(N[C@H]3CC[C@H](N(C)C)CC3)nc3c2ncn3C(C)C)c1 ?
*A* 87

*Q* What do you have for C=CC(=O)Nc1cccc(Oc2nc(Nc3ccc(N4CCN(C)CC4)cc3OC)ncc2Cl)c1 ?
*A* 100

*Q* What do you have for O=C(NOC[C@H](O)CO)c1ccc(F)c(F)c1Nc1ccc(I)cc1F ?
*A* 86

*Q* What do you have for COc1cc(C(=O)NC2CCN(C)CC2)ccc1Nc1ncc2c(n1)N(C1CCCC1)CCC(=O)N2C(C)C ?
*A* 100

*Q* What do you have for Cc1ccc(C(=O)Nc2cccc(C(F)(F)F)c2)cc1Nc1cncc(C(N)=O)c1 ?
*A* 100

*Q* What do you have for C[C@@H](Oc1cc(-n2cnc3ccc(CN4CCN(C)CC4)cc32)sc1C(N)=O)c1ccccc1C(F)(F)F ?
*A* 77

*Q* What do you have for Cc1cc([C@@H](C)Nc2ccccc2C(=O)O)c2nc(N3CCOCC3)cc(=O)n2c1 ?
*A* 86

*Q* What do you have for COc1cc(N2CCN(C)CC2)ccc1Nc1nc(N)c(C(=O)c2c(Cl)cccc2Cl)s1 ?
*A* 93

*Q* What do you have for Cc1ccc2nc(NCCN)c3ncc(C)n3c2c1 ?
*A* 61
